Consider the reported MDR1-MDCK efflux ratio of an entry and match it to a band in bottom (below 0.8), middle (0.8 to below 3), top (3 or more)

> print(dat)
                                    compound  class.label
 1        OC(Cn1cncn1)(Cn1cncn1)c1ccc(F)cc1F          top
 2                 N#Cc1cccnc1NCCc1ccc(F)cc1       bottom
 3        Cc1cc2nc(Sc3nnc(C)n3C)c3ccccc3n2n1          top
 4    COC(C)(C)CCNC(=O)CC1CC(C)(C)NC(C)(C)C1          top
 5  Cc1nc(N)c2c(C(F)(F)F)cc(C3CCN(C(=O)Cc4ccc(F)cc4)CC3)nc2n1          top
 6            Cc1cc(C)nc(NC(=O)N(C)C2CCC2)c1       bottom
 7            Cc1csc(CN(C)c2ccnc(N(C)C)n2)n1       bottom
 8          O=C(NCCc1cnn(-c2ccccc2)c1)N1CCC1       middle
 9                  Cn1nc(C2CCNCC2)c2cccnc21          top
10     CCc1nnc(Sc2nc3cc(C)nn3c3ccccc23)[nH]1       middle
11  COc1cccc(NC(=O)c2c([O-])n(-c3cccc(OC)c3)n[n+]2C)c1       bottom
12  O=C(NC1CCN(c2ccc(OC(F)(F)F)cc2)CC1)N1CCC1       bottom
13               Cc1nnc(CN(C)Cc2cnn(C)c2C)s1       middle
14  Cc1cc2nc(CCC(=O)N3CCc4n[nH]cc4C3)[nH]c2cc1C          top
15      Cc1nnc2ncc(-c3cccc(-c4ccnn4C)c3)cn12       middle
16                 Cc1cccnc1CNc1ccc(C#N)cc1F       bottom
17           CN(CC#N)C(=O)c1cccc(CN2CCCC2)c1       middle
18             O=C(CCc1ccco1)Nc1ccccc1OC(F)F       bottom
19      O=C(NCc1cnn2cccnc12)c1ccccc1-n1cnnc1          top
20  COc1cccc2c1OC(C)(C)[C@@H]1C[C@H]3CNCC[C@H]3O[C@@H]21          top
21  O=C(Nc1nccs1)[C@@H]1C[C@@H]2CCCC[C@@H]2N1C(=O)c1ccccc1          top
22       CCc1noc(CN2CCCN(C(C)=O)c3ccccc32)n1       middle
23  Cn1cc(NC(=O)[C@@H]2CCCCN2C(=O)OC(C)(C)C)cn1          top
24          COc1ccccc1/C=C/CN1CCCC2(C1)OCCO2       bottom
25   COc1cccc(C(=O)NCC(=O)Nc2cccc3c2CCCC3)c1       middle
26  Cc1cc(Nc2ccccn2)cc(C2CCCN(CC(=O)Nc3ncc(C)s3)C2)n1 (stereo not drawn)          top
27        COc1cccc(CN(C)c2ncnc3c2CN(C)CC3)c1       bottom
28  C/C=C/CC(=O)N1CCC(c2cc(Cc3ccccc3)n[nH]2)CC1       middle
29  CCOc1c2c(c(OCC)c3ccccc13)C(=O)N(c1ccc(CC(=O)NS(=O)(=O)c3ccccc3)cc1)C2       middle
30       Cc1cc2ccccc2n1CC(=O)N(C)Cc1cnn(C)c1       middle
31          CC(C)OCCS(=O)(=O)N1CCc2ccccc2CC1       bottom
32  O=C(c1ccccc1N1CCOCC1)N(Cc1ccccn1)C1CCCCC1          top
33              O=c1n(CCn2ccnc2)nnn1-c1cccs1       bottom
34  O=C(Cc1cccc2ccccc12)NCc1nnc2n1-c1ccccc1CC2          top
35  CCc1ccc(NC(=O)C2CCN(c3ccc4nncn4n3)CC2)cc1          top
36  O=C(CCc1ccccc1)N1CCC(c2cccc(Cc3ccc(F)cc3)n2)CC1       bottom
37     Cc1cccc(NC(=O)N2CCC(N3CC=CC3)CC2)c1Cl       bottom
38                  Cc1csc(Nc2ccc(C#N)cc2)n1       bottom
39          Cn1cc(NC(=O)c2ccccc2C(F)(F)F)cn1       middle
40      CCn1nc(Cc2ccc(OC)cc2)nc1Cc1sc(C)nc1C       middle
41  COCCc1noc(CN2CC(c3ccccc3)(c3ccccc3)CCC2=O)n1       middle
42    CSC1(CNC(=O)N2CCC=C(c3ccccc3)C2)CCOCC1       middle
43    O=C(NC[C@H]1COCc2nc3ccccc3n21)c1ccncc1          top
44          COc1cccc(C)c1C(=O)N(C)CCCn1cccn1          top
45    CC(=O)NCc1cc2n(n1)CCN(C1Cc3ccccc3C1)C2       middle
46  Cc1ccc(Cl)c(OC[C@@]2(O)CN(C3CCCC3)CC[C@@H]2O)c1       middle

These entries and their values trace back to the Biogen ADME set (Fang et al. 2023).
